Field: inhibition at 0.001 µM. Provide a value for each of the molecules that follow.
molecular target: IDH R132C (Homo sapiens, UniProt O75874, R132C); construct: expressed in transfected cells; host or cells: U87 cells; assay: Detection of 2-HG in supernatant of U87-IDH R132C cells; format: cell-based; conditions: 1 nM compound, 72 h, LC-MS-MS, vs control; read-out: Inhibition rate of compounds on 2-HG in the supernatant of U87-IDH R132C cells, 1 nM
Sequence (O75874 whole entry R132C): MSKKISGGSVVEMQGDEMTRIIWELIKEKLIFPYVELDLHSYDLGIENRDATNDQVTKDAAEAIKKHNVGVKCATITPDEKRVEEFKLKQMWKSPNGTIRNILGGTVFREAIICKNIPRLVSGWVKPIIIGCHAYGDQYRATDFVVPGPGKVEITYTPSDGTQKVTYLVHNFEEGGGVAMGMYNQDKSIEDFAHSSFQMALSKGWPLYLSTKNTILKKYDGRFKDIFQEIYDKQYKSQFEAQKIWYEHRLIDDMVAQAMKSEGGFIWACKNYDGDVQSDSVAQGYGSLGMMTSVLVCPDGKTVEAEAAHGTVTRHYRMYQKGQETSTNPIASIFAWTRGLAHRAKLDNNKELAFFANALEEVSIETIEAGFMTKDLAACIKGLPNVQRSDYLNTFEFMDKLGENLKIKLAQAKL

Query: Look at this molecule and give its reported inhibition at 0.001 µM. C=CC(=O)N1CCN(C(CC(C)(C)C)c2ccc([C@H](C)Nc3ncc4cnc(=O)n(C(C)C)c4n3)cc2)CC1 (stereo partly shown) [Compound 124]
Response: 30 to 60%

Query: Look at this molecule and give its reported inhibition at 0.001 µM. C=CC(=O)NC1CN(C(CC2CC2)c2ccc([C@H](C)Nc3ncc4c(n3)N(C(C)C)C(=O)OC4)cc2)C1 (stereo partly shown) [Compound 23]
Response: 30 to 60%

Query: Look at this molecule and give its reported inhibition at 0.001 µM. C=CC(=O)N1CC2(C1)CN(C(CC(C)(C)C)c1ccc([C@H](C)Nc3ncc4c(n3)N(CC)C(=O)OC4)cc1)C2 (stereo partly shown) [Compound 59]
Response: 30 to 60%

Query: Look at this molecule and give its reported inhibition at 0.001 µM. C=CC(=O)N1CCN(C(CC)c2ccc([C@H](C)Nc3ncc4cnc(=O)n(C(C)C)c4n3)cc2)CC1 (stereo partly shown) [Compound 112]
Response: 60 to 90%

Query: Look at this molecule and give its reported inhibition at 0.001 µM. C=CC(=O)N1CC2(C1)CN(C(CC13CC(C1)C3)c1ccc([C@H](C)Nc3ncc4c(n3)N(CC)C(=O)NC4)cc1)C2 (stereo partly shown) [Compound 72]
Response: 60 to 90%

Query: Look at this molecule and give its reported inhibition at 0.001 µM. C=CC(=O)N1CC2(C1)CN(C(CC1CC1)c1ccc([C@H](C)Nc3ncc4c(n3)N(CC)C(=O)OC4)cc1)C2 (stereo partly shown) [Compound 1]
Response: 30 to 60%

Query: Look at this molecule and give its reported inhibition at 0.001 µM. C=CC(=O)N1CCN([C@H](CC23CC(C2)C3)c2ccc([C@H](C)Nc3ncc4c(n3)N(CC)C(=O)OC4)cc2)CC1 [Compound 157-2]
Response: 30 to 60%

###

Field: inhibition at 0.001 µM. Provide a value for each of the compounds that follow.
target: IDH R132C (Homo sapiens, UniProt O75874, R132C); construct: expressed in transfected cells; host or cells: U87 cells; assay: Detection of 2-HG in supernatant of U87-IDH R132C cells; format: cell-based; details: 1 nM compound, 72 h, LC-MS-MS, vs control; read-out: Inhibition rate of compounds on 2-HG in the supernatant of U87-IDH R132C cells, 1 nM

Query: Request body: readout inhibition at 0.001 µM, system IDH R132C (Homo sapiens, UniProt O75874, R132C), query C=CC(=O)N1CC2(C1)CN(C(CC1CC1)c1ccc([C@H](C)Nc3ncc4cnc(=O)n(C(C)C)c4n3)cc1)C2 (stereo partly shown) [Compound 86] . Return the value.
Response: 60 to 90%

Query: Request body: readout inhibition at 0.001 µM, system IDH R132C (Homo sapiens, UniProt O75874, R132C), query C=CC(=O)NC1CCN(C(CC2CC2)c2ccc(C3(Nc4ncc5c(n4)N(C(C)C)C(=O)OC5)CC3)cc2)CC1 (stereo not shown) [Compound 32] . Return the value.
Response: 30 to 60%

Query: Request body: readout inhibition at 0.001 µM, system IDH R132C (Homo sapiens, UniProt O75874, R132C), query C=CC(=O)N1CC2(C1)CN([C@@H](CC)c1ccc([C@H](C)Nc3ncc4c(n3)N(CC)C(=O)OC4)cc1)C2 [Compound 36-1] . Return the value.
Response: 60 to 90%

Query: Request body: readout inhibition at 0.001 µM, system IDH R132C (Homo sapiens, UniProt O75874, R132C), query C=CC(=O)N1CC2(C1)CN(C(CC1CC1)c1ccc(C3(Nc4ncc5c(n4)N(C(C)C)C(=O)OC5)CC3)cc1)C2 (stereo not shown) [Compound 31] . Return the value.
Response: < 30%

###

target: IDH R132C (Homo sapiens, UniProt O75874, R132C); construct: expressed in transfected cells; host or cells: U87 cells; experiment: Detection of 2-HG in supernatant of U87-IDH R132C cells; assay type: cell-based; settings: 1 nM compound, 72 h, LC-MS-MS, vs control; read-out: Inhibition rate of compounds on 2-HG in the supernatant of U87-IDH R132C cells, 1 nM
Field: inhibition at 0.001 µM. Provide a value for each of the molecules that follow.

Query: Look at this molecule and give its reported inhibition at 0.001 µM. C=CC(=O)N1CC2(C1)CN(C(CC1(C)CC1)c1ccc([C@H](C)Nc3ncc4c(n3)N(CC)C(=O)NC4)cc1)C2 (stereo partly shown)
Response: 30 to 60%

Query: Look at this molecule and give its reported inhibition at 0.001 µM. C=CC(=O)N(C)C1CCN(C(CC2CC2)c2ccc([C@H](C)Nc3ncc4c(n3)N(CC)C(=O)OC4)cc2)CC1 (stereo partly shown)
Response: 30 to 60%

Query: Look at this molecule and give its reported inhibition at 0.001 µM. C=CC(=O)N1CC2(C1)CN([C@@H](CC13CC(C1)C3)c1ccc([C@H](C)Nc3ncc4c(n3)N(CC)C(=O)NC4)cc1)C2
Response: 60 to 90%

Query: Look at this molecule and give its reported inhibition at 0.001 µM. C=CC(=O)N1CCN([C@@H](CC2CC2)c2ccc([C@H](C)Nc3ncc4cnc(=O)n(CC)c4n3)cc2)CC1
Response: 60 to 90%

Query: Look at this molecule and give its reported inhibition at 0.001 µM. C=CC(=O)N1CCN(C(CC2CC2)c2ccc(C3(Nc4ncc5c(n4)N(C(C)C)C(=O)OC5)CC3)cc2)CC1 (stereo not shown)
Response: < 30%

Query: Look at this molecule and give its reported inhibition at 0.001 µM. C=CC(=O)N1CCN(C(CC23CC(C2)C3)c2ccc([C@H](C)Nc3ncc4c(n3)N(CC)C(=O)OC4)cc2)CC1 (stereo partly shown)
Response: 60 to 90%

Query: Look at this molecule and give its reported inhibition at 0.001 µM. C=CC(=O)N1CCN(C(CCC)c2ccc([C@H](C)Nc3ncc4c(n3)N(CC)C(=O)OC4)cc2)CC1 (stereo partly shown)
Response: 30 to 60%

###

biological target: IDH R132C (Homo sapiens, UniProt O75874, R132C); construct: expressed in transfected cells; host or cells: U87 cells; test: Detection of 2-HG in supernatant of U87-IDH R132C cells; type: cell-based; settings: 1 nM compound, 72 h, LC-MS-MS, vs control; read-out: Inhibition rate of compounds on 2-HG in the supernatant of U87-IDH R132C cells, 1 nM
Field: inhibition at 0.001 µM. Provide a value for each of the molecules that follow.

Query: Look at this molecule and give its reported inhibition at 0.001 µM. C=CC(=O)N(C)C1CN(C(CC2CC2)c2ccc(C3(Nc4ncc5c(n4)N(CC)C(=O)OC5)CC3)cc2)C1 (stereo not shown)
Response: 30 to 60%

Query: Look at this molecule and give its reported inhibition at 0.001 µM. C=CC(=O)N1CCN([C@@H](CC2CC2)c2ccc([C@H](C)Nc3ncc4c(n3)N(CC)C(=O)OC4)cc2)CC1 [LY-3410738, reference compound]
Response: 30 to 60%

Query: Look at this molecule and give its reported inhibition at 0.001 µM. C=CC(=O)N1CC2(C1)CN(C(CC13CC(C1)C3)c1ccc([C@H](C)Nc3ncc4c(n3)N(CC)C(=O)OC4)cc1)C2 (stereo partly shown)
Response: 60 to 90%

Query: Look at this molecule and give its reported inhibition at 0.001 µM. C=CC(=O)N1CC2(C1)CN(C(CC1CCC1)c1ccc([C@H](C)Nc3ncc4c(n3)N(CC)C(=O)OC4)cc1)C2 (stereo partly shown)
Response: 30 to 60%

Query: Look at this molecule and give its reported inhibition at 0.001 µM. C=CC(=O)N1CCN([C@@H](CC23CC(C2)C3)c2ccc([C@H](C)Nc3ncc4c(n3)N(CC)C(=O)NC4)cc2)CC1
Response: 60 to 90%

Query: Look at this molecule and give its reported inhibition at 0.001 µM. C=CC(=O)N1CCN(C(CC)c2ccc([C@H](C)Nc3ncc4cnc(=O)n(CC)c4n3)cc2)CC1 (stereo partly shown)
Response: 30 to 60%

Query: Look at this molecule and give its reported inhibition at 0.001 µM. C=CC(=O)N1CCN(C(CC2(C)CC2)c2ccc([C@H](C)Nc3ncc4c(n3)N(CC)C(=O)NC4)cc2)CC1 (stereo partly shown)
Response: 30 to 60%
